Test system: 958767-090-R-J1-PDC spheroid growth
Assay: Anticancer human tumor 958767-090-R-J1-PDC patient-derived head and neck squamous carcinoma cell line growth inhibition [IpAb]
Settings: second compound 0.01 µM; first compound 0.0316 µM; active compounds read low; spheroids with HUVEC and MSC
MEASUREMENT_TYPE: viability, T/C (%)

INSERT INTO measurements (compound, measurement_type, val) VALUES
  ('CC1(C)CCC(CN2CCN(c3ccc(C(=O)NS(=O)(=O)c4ccc(NCC5CCOCC5)c([N+](=O)[O-])c4)c(Oc4cnc5[nH]ccc5c4)c3)CC2)=C(c2ccc(Cl)cc2)C1 + CCN1CCN(Cc2ccc(Nc3ncc(F)c(-c4cc(F)c5nc(C)n(C(C)C)c5c4)n3)nc2)CC1', 'viability, T/C', 88.7),
  ('Cn1nccc1Nc1nccc(-c2ccn(C(CO)c3ccc(Cl)c(F)c3)c(=O)c2)n1 (stereo not given) + CCN1CCN(Cc2ccc(Nc3ncc(F)c(-c4cc(F)c5nc(C)n(C(C)C)c5c4)n3)nc2)CC1', 'viability, T/C', 72.3),
  ('COc1c(OCCCN2CCOCC2)ccc2c3n(c(=NC(=O)c4cnc(N)nc4)nc12)CCN3 + CCN1CCN(Cc2ccc(Nc3ncc(F)c(-c4cc(F)c5nc(C)n(C(C)C)c5c4)n3)nc2)CC1', 'viability, T/C', 31.5),
  ('CC(C)n1nc(-c2ccc3oc(N)nc3c2)c2c(N)ncnc21 + CCN1CCN(Cc2ccc(Nc3ncc(F)c(-c4cc(F)c5nc(C)n(C(C)C)c5c4)n3)nc2)CC1', 'viability, T/C', 39.2),
  ('C=CCn1c(=O)c2cnc(Nc3ccc(N4CCN(C)CC4)cc3)nc2n1-c1cccc(C(C)(C)O)n1 + CCN1CCN(Cc2ccc(Nc3ncc(F)c(-c4cc(F)c5nc(C)n(C(C)C)c5c4)n3)nc2)CC1', 'viability, T/C', 83.8);

====

Each entry below lists one item and its recorded viability, T/C value.
System: 958767-090-R-J1-PDC spheroid growth
Assay: Anticancer human tumor 958767-090-R-J1-PDC cell line growth inhibition [IpAb];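 note: spheroids exposed to agents for 7 days; 100% = DMSO vehicle control wells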
Settings: second compound 0.01 µM; first compound 0.0316 µM; active compounds read low; spheroids with HUVEC and MSC
MEASUREMENT_TYPE: viability, T/C (%)

INSERT INTO measurements (compound, unit_annotation, val) VALUES
  ('Cn1ncc(Cl)c1-c1cc(C(=O)NC(CN)Cc2cccc(F)c2)sc1Cl (stereo not given) + CCN1CCN(Cc2ccc(Nc3ncc(F)c(-c4cc(F)c5nc(C)n(C(C)C)c5c4)n3)nc2)CC1', '%', 89.7),
  ('Cc1nc(NC(=O)N2CCCC2C(N)=O)sc1-c1ccnc(C(C)(C)C(F)(F)F)c1 (stereo not given) + CCN1CCN(Cc2ccc(Nc3ncc(F)c(-c4cc(F)c5nc(C)n(C(C)C)c5c4)n3)nc2)CC1', '%', 65.3),
  ('Cn1ncnc1[C@H]1c2n[nH]c(=O)c3cc(F)cc(c23)N[C@@H]1c1ccc(F)cc1 + CCN1CCN(Cc2ccc(Nc3ncc(F)c(-c4cc(F)c5nc(C)n(C(C)C)c5c4)n3)nc2)CC1', '%', 75),
  ('C=CC(=O)N1CCN(c2nc(=O)n(-c3c(C)ccnc3C(C)C)c3nc(-c4c(O)cccc4F)c(F)cc23)C(C)C1 (stereo not given) + CCN1CCN(Cc2ccc(Nc3ncc(F)c(-c4cc(F)c5nc(C)n(C(C)C)c5c4)n3)nc2)CC1', '%', 96.3),
  ('CCCS(=O)(=O)Nc1ccc(F)c(C(=O)c2c[nH]c3ncc(-c4ccc(Cl)cc4)cc23)c1F + CCN1CCN(Cc2ccc(Nc3ncc(F)c(-c4cc(F)c5nc(C)n(C(C)C)c5c4)n3)nc2)CC1', '%', 93.1);
